tgt: mNaV1.6 (Mus musculus, UniProt Q9WTU3)
Sequence (Q9WTU3 whole entry): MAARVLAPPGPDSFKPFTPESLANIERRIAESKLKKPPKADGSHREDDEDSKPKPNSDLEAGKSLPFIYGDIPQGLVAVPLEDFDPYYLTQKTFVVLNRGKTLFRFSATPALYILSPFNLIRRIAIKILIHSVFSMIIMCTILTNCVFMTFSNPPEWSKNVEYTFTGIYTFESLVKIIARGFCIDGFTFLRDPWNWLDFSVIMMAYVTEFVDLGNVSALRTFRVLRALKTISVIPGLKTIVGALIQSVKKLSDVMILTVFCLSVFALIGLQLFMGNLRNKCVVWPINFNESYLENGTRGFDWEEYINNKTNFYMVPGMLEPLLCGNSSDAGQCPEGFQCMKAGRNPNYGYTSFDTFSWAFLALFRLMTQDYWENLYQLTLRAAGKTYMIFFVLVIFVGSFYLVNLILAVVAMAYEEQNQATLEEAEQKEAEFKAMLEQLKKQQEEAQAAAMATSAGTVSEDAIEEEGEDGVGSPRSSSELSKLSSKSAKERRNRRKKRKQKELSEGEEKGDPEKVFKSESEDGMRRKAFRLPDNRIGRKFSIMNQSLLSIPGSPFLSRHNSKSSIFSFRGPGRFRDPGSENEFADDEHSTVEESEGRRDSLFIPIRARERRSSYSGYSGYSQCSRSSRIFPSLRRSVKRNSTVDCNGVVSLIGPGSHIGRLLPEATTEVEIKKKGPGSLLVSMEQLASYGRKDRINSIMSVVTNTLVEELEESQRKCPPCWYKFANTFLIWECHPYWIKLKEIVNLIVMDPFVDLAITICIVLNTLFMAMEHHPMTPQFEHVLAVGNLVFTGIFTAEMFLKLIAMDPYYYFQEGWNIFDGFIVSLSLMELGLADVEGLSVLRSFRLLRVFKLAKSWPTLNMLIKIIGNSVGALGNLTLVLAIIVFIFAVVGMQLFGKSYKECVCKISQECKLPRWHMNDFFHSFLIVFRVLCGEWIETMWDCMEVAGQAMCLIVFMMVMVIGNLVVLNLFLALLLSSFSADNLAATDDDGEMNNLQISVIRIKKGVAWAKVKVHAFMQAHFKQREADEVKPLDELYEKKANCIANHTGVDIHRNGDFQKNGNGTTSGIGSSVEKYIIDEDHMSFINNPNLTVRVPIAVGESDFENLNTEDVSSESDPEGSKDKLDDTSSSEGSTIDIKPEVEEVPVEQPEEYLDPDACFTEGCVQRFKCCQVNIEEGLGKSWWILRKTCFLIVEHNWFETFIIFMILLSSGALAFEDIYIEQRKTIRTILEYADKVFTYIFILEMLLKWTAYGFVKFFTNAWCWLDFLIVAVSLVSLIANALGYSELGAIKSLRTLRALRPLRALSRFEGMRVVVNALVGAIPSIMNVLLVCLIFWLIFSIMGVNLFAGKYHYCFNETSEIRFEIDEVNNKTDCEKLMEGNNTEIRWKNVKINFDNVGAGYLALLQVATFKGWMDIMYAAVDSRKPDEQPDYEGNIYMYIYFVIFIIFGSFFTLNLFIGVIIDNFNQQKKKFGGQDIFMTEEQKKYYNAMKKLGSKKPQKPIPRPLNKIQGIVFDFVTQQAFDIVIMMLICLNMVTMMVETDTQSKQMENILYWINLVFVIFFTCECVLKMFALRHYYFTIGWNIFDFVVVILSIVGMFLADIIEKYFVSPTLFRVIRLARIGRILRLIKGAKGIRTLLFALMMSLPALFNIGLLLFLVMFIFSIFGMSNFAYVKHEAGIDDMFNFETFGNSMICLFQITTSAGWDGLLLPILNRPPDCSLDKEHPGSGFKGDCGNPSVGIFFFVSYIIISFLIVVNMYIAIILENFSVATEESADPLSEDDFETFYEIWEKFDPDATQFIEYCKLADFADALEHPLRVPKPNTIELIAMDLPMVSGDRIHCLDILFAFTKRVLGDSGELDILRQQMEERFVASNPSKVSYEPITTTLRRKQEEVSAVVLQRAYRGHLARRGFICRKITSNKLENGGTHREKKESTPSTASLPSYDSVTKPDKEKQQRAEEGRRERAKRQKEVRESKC
assay notes: Two-electrode voltage-clamp on Xenopus laevis oocytes expressing NaV1.6
measurement setup: read-out: Maximum % inhibition NaV1.6, peptide at 100 μM
Where a SMILES comes first, the peptide text is derived from it. Bridges are numbered along the chain shown (N, C = ends).
measured property: inhibition at 100 µM

[[record]]
compound = "C[C@@H]1NC(=O)[C@H](Cc2c[nH]c3ccccc23)NC(=O)[C@H](CCCNC(=N)N)NC(=O)[C@H](CCCNC(=N)N)NC(=O)[C@@H](N)CSSC[C@@H](C(N)=O)NC(=O)[C@H](CCCNC(=N)N)NC(=O)[C@H](CC(N)=O)NC(=O)[C@H](Cc2c[nH]c3ccccc23)NC(=O)[C@H](CCCNC(=N)N)NC1=O [PnCS1, CRRWARWNRC ^*] (H-CRRWARWNRC-NH2; disulfide 1-10)"
val = "96%"

[[record]]
compound = "C[C@@H]1NC(=O)[C@H](Cc2c[nH]c3ccccc23)NC(=O)[C@H](CCCNC(=N)N)NC(=O)[C@H](CCCNC(=N)N)NC(=O)[C@@H](N)CSSC[C@@H](C(N)=O)NC(=O)[C@H](CCCNC(=N)N)NC(=O)[C@H](CC(N)=O)NC(=O)[C@H](Cc2c[nH]c3ccccc23)NC(=O)[C@H](CCC(=O)O)NC1=O [PnCS1[R6E], CRRWAEWNRC ^*] (H-CRRWAEWNRC-NH2; disulfide 1-10)"
val = "41%"

[[record]]
compound = "C[C@@H]1NC(=O)[C@H](Cc2c[nH]c3ccccc23)NC(=O)[C@H](CCCNC(=N)N)NC(=O)[C@H](C)NC(=O)[C@H](Cc2c[nH]c3ccccc23)NC(=O)[C@H](CCCNC(=N)N)NC(=O)[C@H](CCCNC(=N)N)NC(=O)[C@@H](N)CSSC[C@@H](C(N)=O)NC(=O)[C@H](CCCNC(=N)N)NC1=O [PnCS1[N8A], CRRWARWARC ^*] (H-CRRWARWARC-NH2; disulfide 1-10)"
val = "89%"

[[record]]
compound = "C[C@@H]1NC(=O)[C@H](Cc2c[nH]c3ccccc23)NC(=O)[C@H](CCCNC(=N)N)NC(=O)[C@H](CCCNC(=N)N)NC(=O)[C@@H](N)CSSC[C@@H](C(N)=O)NC(=O)[C@H](CCCNC(=N)N)NC(=O)[C@H](CC(N)=O)NC(=O)[C@H](Cc2ccc(O)cc2)NC(=O)[C@H](CCCNC(=N)N)NC1=O [PnCS1[W7Y], CRRWARYNRC ^*] (H-CRRWARYNRC-NH2; disulfide 1-10)"
val = "93%"

[[record]]
compound = "C[C@@H]1NC(=O)[C@H](Cc2c[nH]c3ccccc23)NC(=O)[C@H](CCCNC(=N)N)NC(=O)[C@H](CCCCN)NC(=O)[C@@H](N)CSSC[C@@H](C(N)=O)NC(=O)[C@H](CCCNC(=N)N)NC(=O)[C@H](CC(N)=O)NC(=O)[C@H](Cc2c[nH]c3ccccc23)NC(=O)[C@H](CCCNC(=N)N)NC1=O [PnCS1[R2K], CKRWARWNRC ^*] (H-CKRWARWNRC-NH2; disulfide 1-10)"
val = "85%"

[[record]]
compound = "C[C@@H]1NC(=O)[C@H](Cc2c[nH]c3ccccc23)NC(=O)[C@H](CCCNC(=N)N)NC(=O)[C@H](C)NC(=O)[C@@H](N)CSSC[C@@H](C(N)=O)NC(=O)[C@H](CCCNC(=N)N)NC(=O)[C@H](CC(N)=O)NC(=O)[C@H](Cc2c[nH]c3ccccc23)NC(=O)[C@H](CCCNC(=N)N)NC1=O [PnCS1[R2A], CARWARWNRC ^*] (H-CARWARWNRC-NH2; disulfide 1-10)"
val = "71%"

[[record]]
compound = "C[C@@H]1NC(=O)[C@H](Cc2c[nH]c3ccccc23)NC(=O)[C@H](CCCNC(=N)N)NC(=O)[C@H](CCCNC(=N)N)NC(=O)[C@@H](N)CSSC[C@@H](C(N)=O)NC(=O)[C@H](CCCNC(=N)N)NC(=O)[C@H](CCC(=O)O)NC(=O)[C@H](Cc2c[nH]c3ccccc23)NC(=O)[C@H](CCCNC(=N)N)NC1=O [PnCS1[N8E], CRRWARWERC ^*] (H-CRRWARWERC-NH2; disulfide 1-10)"
val = "27%"

[[record]]
compound = "C[C@@H]1NC(=O)[C@H](Cc2c[nH]c3ccccc23)NC(=O)[C@H](CCCNC(=N)N)NC(=O)[C@H](CCC(=O)O)NC(=O)[C@@H](N)CSSC[C@@H](C(N)=O)NC(=O)[C@H](CCCNC(=N)N)NC(=O)[C@H](CC(N)=O)NC(=O)[C@H](Cc2c[nH]c3ccccc23)NC(=O)[C@H](CCCNC(=N)N)NC1=O [PnCS1[R2E], CERWARWNRC ^*] (H-CERWARWNRC-NH2; disulfide 1-10)"
val = "5%"

[[record]]
compound = "C[C@@H]1NC(=O)[C@H](Cc2c[nH]c3ccccc23)NC(=O)[C@H](CCCNC(=N)N)NC(=O)[C@H](CCCNC(=N)N)NC(=O)[C@@H](N)CSSC[C@@H](C(N)=O)NC(=O)[C@H](CCCNC(=N)N)NC(=O)[C@H](CC(N)=O)NC(=O)[C@H](CCCCN)NC(=O)[C@H](CCCNC(=N)N)NC1=O [PnCS1[W7K], CRRWARKNRC ^*] (H-CRRWARKNRC-NH2; disulfide 1-10)"
val = "82%"

[[record]]
compound = "C[C@@H]1NC(=O)[C@H](Cc2c[nH]c3ccccc23)NC(=O)[C@H](CCCNC(=N)N)NC(=O)[C@H](CCCNC(=N)N)NC(=O)[C@@H](N)CSSC[C@@H](C(N)=O)NC(=O)[C@H](CCCCN)NC(=O)[C@H](CC(N)=O)NC(=O)[C@H](Cc2c[nH]c3ccccc23)NC(=O)[C@H](CCCNC(=N)N)NC1=O [PnCS1[R9K], CRRWARWNKC ^*] (H-CRRWARWNKC-NH2; disulfide 1-10)"
val = "72%"

